B1: TBX5 (parent)
chain: FHEVGTEMIITKAGRRMFPSYKVK

# Variants of: B1
# protocol-notes: protein stability index of a GFP-peptide fusion (GPS, HEK-293T) (PSI 1-6); higher = more stable;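 also: lentivirally expressed fusions sorted by FACS into six bins by GFP to DsRed ratio, PSI derived from sequencing read proportions per bin multiplied by bin number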
# measurement-conditions: c terminus: a fixed tail appended
Please enter met where protein stability index is greater than or equal to 2, and not met where it is lower.

Hi, just wondering whether I9N shows protein stability index of 2 or higher.
met

Value source: the supplement of paper PMC10567573
